Test system: IGROV1 ovarian
Experiment: NCI tumour cell line growth inhibition, 48 h
Where a SMILES comes first, the peptide text is derived from it. [ ]: non-standard residue; d: D form. The star is where a group is joined. ξ: configuration not given here. Propanoyl(3-(4-MeO-Ph)) = COc1ccc(CCC(=O)*)cc1; Thr(3ξ) = CC(O)[C@H](N)C(=O)O; dNMeL = CN[C@H](CC(C)C)C(=O)O; ξLac = CC(O)C(=O)O
# key: entry, value: TGI

Reference set (3 entries):
>>> recorded_value("O=c1oc(-c2ccccc2)cc2cccc(O)c12")
"> 100 µM"
>>> recorded_value("CCOC(=O)c1cn(CC)c2cc3c(cc2c1=O)CCS3(=O)=O")
"> 100 µM"
>>> recorded_value("Nc1nc2ccc3[nH]ncc3c2c2c1CCCC2")
"11.2 µM"

Which value of TGI has been reported for COC(=O)[C@@H](NC(=O)[C@@H](CC(C)C)N(C)C(=O)[C@@H]1CCCN1C(=O)C(C)O)C(C)OC(=O)CCc1ccc(OC)cc1 (stereo partly specified) (H-[ξLac]P[dNMeL][Thr(3ξ)](Propanoyl(3-(4-MeO-Ph)))-OMe) in the records?
> 100 µM

Please look up its TGI: C[n+]1c2ccccc2c(Nc2ccc(NS(=O)(=O)CCCCN=C(N)N)cc2)c2ccc(N)cc21
> 100 µM

Could you tell me which TGI is on file for COc1ccc(NCc2cnc3nc(N)nc(N)c3c2C)cc1 ?
> 100 µM

What value of TGI has been recorded for this entry: N#C/C(=C\Nc1ccccn1)C(=O)c1ccco1
> 100 µM

Data request, read-out TGI, for NNC(=O)CCC(NS(=O)(=O)c1ccc(Cl)cc1)C(=O)NN (stereo unspecified)
> 100 µM

Return reported TGI; argument: CC1(C)N=C(N)N=C(N)N1c1ccc(CCc2ccc(Cl)cc2S(=O)(=O)F)c(Cl)c1
> 100 µM

Reported TGI for CCCCCCCC(=O)OCC1OC(n2cc(F)c(=O)[nH]c2=O)C(NC(=O)OCc2ccccc2)C(O)C1O (stereo unspecified) : what is it?
> 100 µM

Query (compound): COC(=O)c1c(O)ccc2c1c1c(n2Cc2ccccc2OC)C(=O)c2ccccc2C1 ; field requested: TGI
> 100 µM

May I ask what TGI has been recorded for C=CCCC(On1c(-c2ccc(Cl)cc2)csc1=S)c1ccccc1 (stereo unspecified) ?
> 100 µM

Item under review: Cc1ccc(-c2cc(=O)c3cc(C)c(C)c(C(=O)O)c3o2)cc1 . Reported TGI?
> 100 µM
